tgt: WEE1 (Homo sapiens, UniProt P30291)
Construct: Drug treated cells are fixed and stained with propidium iodide (PI); endogenous in cells
Sequence (P30291 whole entry): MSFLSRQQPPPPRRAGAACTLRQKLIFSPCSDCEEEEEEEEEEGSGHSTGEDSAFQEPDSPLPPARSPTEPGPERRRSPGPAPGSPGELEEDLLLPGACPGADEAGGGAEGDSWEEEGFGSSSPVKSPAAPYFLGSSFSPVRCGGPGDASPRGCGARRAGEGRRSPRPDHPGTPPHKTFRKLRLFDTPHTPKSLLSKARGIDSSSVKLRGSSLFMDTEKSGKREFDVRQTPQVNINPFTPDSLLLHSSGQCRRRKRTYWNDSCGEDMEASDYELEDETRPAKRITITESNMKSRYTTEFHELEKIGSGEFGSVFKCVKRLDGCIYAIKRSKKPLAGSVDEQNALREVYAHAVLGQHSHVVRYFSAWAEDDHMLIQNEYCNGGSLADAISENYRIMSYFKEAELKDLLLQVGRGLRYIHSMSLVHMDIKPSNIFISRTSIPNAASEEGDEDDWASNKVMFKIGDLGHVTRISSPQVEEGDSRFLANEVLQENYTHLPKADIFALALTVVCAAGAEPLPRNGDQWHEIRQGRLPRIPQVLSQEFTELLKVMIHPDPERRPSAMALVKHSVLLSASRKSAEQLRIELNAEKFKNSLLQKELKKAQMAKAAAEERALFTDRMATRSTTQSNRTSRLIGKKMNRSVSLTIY
assayNotes: in vitro enzymatic inhibitory activity, WEE1 kinase, 10-dose IC50 mode
conditionLabel: 10 μM ATP
propertyLabel: pIC50
Formally, pIC50 is defined as -log10 of the concentration c, with c in mol/L.

Requested field: pIC50. Item: CN1CCC(n2cc(Nc3ncc4c(=O)n(-c5c(Cl)cccc5Cl)cc(Br)c4n3)cn2)CC1 [Compound P1] 7.39

Sample "CCc1cn(-c2c(Cl)cccc2Cl)c(=O)c2cnc(Nc3cnn(C4CCNCC4)c3)nc12" — what was its pIC50? 7.33

Entry under review: "CN1CCc2ccc(Nc3ncc4c(=O)n(-c5c(Cl)cccc5Cl)cc(Br)c4n3)cc2C1" . Reported pIC50? 7.51

# get_value(readout='pIC50', item= "O=c1c2cnc(Nc3ccc4c(c3)CNCC4)nc2c(Br)cn1-c1c(Cl)cccc1Cl" ) 7.57
